# TARGET_SYSTEM: Protein kinase C alpha type (Homo sapiens) (UniProt P17252)
# TEST_PROTOCOL: Inhibition of PKCalpha in human U937 cells assessed as p21WAF1/CIP1 expression at 5 uM after 30 hrs by cytofluorimetric analysis
# Type: cell-based
# PROTOCOL_CONDITIONS: U-937
Active and inactive are the calls of the source. The calls are words filed in the database; no cut-off is given here.
Bench note: report the call from active, inactive

Illustrative cases are given below, each with its answer.
O=C(CCc1c[nH]c2ccc(Br)cc12)NCCSSCCNC(=O)CCc1c[nH]c2ccc(Br)cc12
active
O=C(NCCSSCCNC(=O)/C(Cc1c[nH]c2ccc(OCc3ccccc3)cc12)=N/O)/C(Cc1c[nH]c2ccc(OCc3ccccc3)cc12)=N/O
active
Cn1cc(C/C(=N\O)C(=O)NCCSSCCNC(=O)/C(Cc2cn(C)c3ccc(Br)cc23)=N/O)c2cc(Br)ccc21
active
O=C(NCCSSCCNC(=O)/C(Cc1c[nH]c2ccc(I)cc12)=N/O)/C(Cc1c[nH]c2ccc(I)cc12)=N/O
active
O=C(NCCSSCCNC(=O)/C(Cc1c[nH]c2ccc(F)cc12)=N/O)/C(Cc1c[nH]c2ccc(F)cc12)=N/O
inactive
O=C(NCCSSCCNC(=O)/C(Cc1c[nH]c2ccccc12)=N/O)/C(Cc1c[nH]c2ccccc12)=N/O
active

Query block: Dear all, I need the recorded test outcome for O=C(NCCSSCCNC(=O)/C(Cc1c[nH]c2cc(Br)ccc12)=N/O)/C(Cc1c[nH]c2cc(Br)ccc12)=N/O , thank you.
Result block: active

Query block: Which outcome was assigned to O=C(NCCSSCCNC(=O)/C(Cc1c[nH]c2ccc(Cl)cc12)=N/O)/C(Cc1c[nH]c2ccc(Cl)cc12)=N/O in this test?
Result block: active
